These measurements were taken from patent US4956504A.

Reported response vs control in vivo at 50 mg/kg values are given for each entry in this list.
tested on: mouse leukemia L1210; experiment: Life prolongation effect to mouse leukemia L1210; assay type: in vivo, mouse (CDF1-SLC female); conditions: 50.00 mg/kg/day, once a day for nine consecutive days, 125 or more is effective, read-out: T/C × 100 (life prolongation percentage)
Structures can show the parent of a compound that is named as a salt.

| compound | response vs control in vivo at 50 mg/kg (%) |
| --- | --- |
| CC(C)C[C@H](NC(=O)[C@@H](N)CC(C)C)C(=O)NCCCNCCCCNC(=O)[C@H](CO)NC(=O)CCCc1ccc(NC(=N)N)cc1 [Compound No. 13, trihydrochloride] | 303 |
| N=C(N)Nc1ccc(CCCC(=O)N[C@@H](CO)C(=O)NCCCCNCCCNC(=O)[C@@H](N)CO)cc1 [Compound No. 9, trihydrochloride] | 250 |
| N=C(N)Nc1ccc(CCCC(=O)N[C@@H](CO)C(=O)NCCCCNCCCNC(=O)[C@H](N)c2ccccc2)cc1 [Compound No. 4, trihydrochloride] | 197 |
| N=C(N)Nc1ccc(CCCC(=O)N[C@@H](CO)C(=O)NCCCCNCCCNC(=O)[C@@H](N)Cc2ccccc2)cc1 [Compound No. 5, trihydrochloride] | 253 |
| N=C(N)Nc1ccc(CCCC(=O)N[C@@H](CO)C(=O)NCCCCNCCCNC(=O)[C@@H](N)Cc2ccc(O)cc2)cc1 [Compound No. 6, trihydrochloride] | 162 |
| N=C(N)Nc1ccc(CCCC(=O)N[C@@H](CO)C(=O)NCCCCNCCCNC(=O)[C@@H](N)CC(=O)O)cc1 [Compound No. 7, trihydrochloride] | 284 |
| CC(C)C[C@H](N)C(=O)NCCCNCCCCNC(=O)[C@H](CO)NC(=O)CCCc1ccc(NC(=N)N)cc1 | 53 |
| N=C(N)Nc1ccc(CCCC(=O)N[C@@H](CO)C(=O)NCCCCNCCCNC(=O)[C@@H](N)c2ccccc2)cc1 [Compound No. 1, trihydrochloride] | 327 |

----------
system: mouse leukemia L1210; test: Life prolongation effect to mouse leukemia L1210; format: in vivo, mouse (CDF1-SLC female); settings: 12.50 mg/kg/day, once a day for nine consecutive days, 125 or more is effective, read-out: T/C × 100 (life prolongation percentage)
Counter-ions that a name gives are not always drawn.
assayReadout: response vs control in vivo at 12.5 mg/kg (%)

| molecule | readoutUnit | observedValue |
| --- | --- | --- |
| N=C(N)Nc1ccc(CCCC(=O)N[C@@H](CO)C(=O)NCCCCNCCCNC(=O)[C@@H](N)Cc2ccccc2)cc1 [Compound No. 5, trihydrochloride] | % | 290 |
| N=C(N)Nc1ccc(CCCC(=O)N[C@@H](CO)C(=O)NCCCCNCCCNC(=O)[C@@H](N)c2ccccc2)cc1 [Compound No. 1, trihydrochloride] | % | 278 |
| N=C(N)Nc1ccc(CCCC(=O)N[C@@H](CO)C(=O)NCCCCNCCCNC(=O)[C@@H](N)CO)cc1 [Compound No. 9, trihydrochloride] | % | 276 |
| N=C(N)Nc1ccc(CCCC(=O)N[C@@H](CO)C(=O)NCCCCNCCCNC(=O)[C@@H](N)CC(=O)O)cc1 [Compound No. 7, trihydrochloride] | % | 265 |
| N=C(N)Nc1ccc(CCCC(=O)N[C@@H](CO)C(=O)NCCCCNCCCNC(=O)[C@@H](N)Cc2ccc(O)cc2)cc1 [Compound No. 6, trihydrochloride] | % | 250 |
| CC(C)C[C@H](NC(=O)[C@@H](N)CC(C)C)C(=O)NCCCNCCCCNC(=O)[C@H](CO)NC(=O)CCCc1ccc(NC(=N)N)cc1 [Compound No. 13, trihydrochloride] | % | 257 |
| CC(C)C[C@H](N)C(=O)NCCCNCCCCNC(=O)[C@H](CO)NC(=O)CCCc1ccc(NC(=N)N)cc1 [Compound No. 2, 10-{N-[4-(4-GP)butanoyl)-L-Ser}-1-L-] | % | 272 |
| N=C(N)Nc1ccc(CCCC(=O)N[C@@H](CO)C(=O)NCCCCNCCCNC(=O)[C@H](N)c2ccccc2)cc1 [Compound No. 4, trihydrochloride] | % | 243 |
| C[C@H](N)C(=O)NCCCNCCCCNC(=O)[C@H](CO)NC(=O)CCCc1ccc(NC(=N)N)cc1 [Compound No. 8, trihydrochloride] | % | 290 |

----------
Reported Inhibitory percentage (antibody formation, PFC number vs control group) values are given for each entry in this list.
system: antibody formation (anti-SRBC plaque-forming cells); assay: Inhibitory activity against antibody formation (anti-SRBC plaque-forming cells in spleen); assay type: in vivo, mouse (CDF1-SLC female); conditions: Administration amount 1.56 mg/kg, once a day for three consecutive days; minus shows an increase of antibody formation
Where a name gives a salt, the structure may show the parent alone.
assayReadout: Inhibitory percentage (antibody formation, PFC number vs control group)

| compound | measuredOn | observedValue |
| --- | --- | --- |
| N=C(N)Nc1ccc(CCCC(=O)N[C@@H](CO)C(=O)NCCCCNCCCNC(=O)[C@@H](N)c2ccccc2)cc1 [Compound No. 1, trihydrochloride] | antibody formation (anti-SRBC plaque-forming cells) | 87% |
| N=C(N)Nc1ccc(CCCC(=O)N[C@@H](CO)C(=O)NCCCCNCCCNC(=O)[C@H](N)c2ccccc2)cc1 [Compound No. 4, trihydrochloride] | antibody formation (anti-SRBC plaque-forming cells) | 68% |
| CC(C)C[C@H](N)C(=O)NCCCNCCCCNC(=O)[C@H](CO)NC(=O)CCCc1ccc(NC(=N)N)cc1 | antibody formation (anti-SRBC plaque-forming cells) | 60% |
| N=C(N)Nc1ccc(CCCC(=O)N[C@@H](CO)C(=O)NCCCCN(CCCNC(=O)[C@@H](N)c2ccccc2)C(=O)[C@@H](N)c2ccccc2)cc1 [Compound No. 14, trihydrochloride] | antibody formation (anti-SRBC plaque-forming cells) | -50% |
| CC(C)C[C@H](NC(=O)[C@@H](N)CC(C)C)C(=O)NCCCNCCCCNC(=O)[C@H](CO)NC(=O)CCCc1ccc(NC(=N)N)cc1 [Compound No. 13, trihydrochloride] | antibody formation (anti-SRBC plaque-forming cells) | 53% |

----------
test system: mouse leukemia L1210; experiment: Life prolongation effect to mouse leukemia L1210; assay type: in vivo, mouse (CDF1-SLC female); settings: 0.39 mg/kg/day, once a day for nine consecutive days, 125 or more is effective, read-out: T/C × 100 (life prolongation percentage)
Structures can show the parent of a compound that is named as a salt.
assayReadout: response vs control in vivo at 0.39 mg/kg (%)

| molecule | measuredOn | observedValue |
| --- | --- | --- |
| N=C(N)Nc1ccc(CCCC(=O)N[C@@H](CO)C(=O)NCCCCNCCCNC(=O)[C@H](N)c2ccccc2)cc1 [Compound No. 4, trihydrochloride] | mouse leukemia L1210 | 125 |
| N=C(N)Nc1ccc(CCCC(=O)N[C@@H](CO)C(=O)NCCCCNCCCNC(=O)[C@@H](N)CC(=O)O)cc1 [Compound No. 7, trihydrochloride] | mouse leukemia L1210 | 96 |
| C[C@H](N)C(=O)NCCCNCCCCNC(=O)[C@H](CO)NC(=O)CCCc1ccc(NC(=N)N)cc1 [Compound No. 8, trihydrochloride] | mouse leukemia L1210 | 102 |
| N=C(N)Nc1ccc(CCCC(=O)N[C@@H](CO)C(=O)NCCCCNCCCNC(=O)[C@@H](N)Cc2ccc(O)cc2)cc1 [Compound No. 6, trihydrochloride] | mouse leukemia L1210 | 125 |
| N=C(N)Nc1ccc(CCCC(=O)N[C@@H](CO)C(=O)NCCCCNCCCNC(=O)[C@@H](N)c2ccccc2)cc1 [Compound No. 1, trihydrochloride] | mouse leukemia L1210 | 146 |
| CC(C)C[C@H](N)C(=O)NCCCNCCCCNC(=O)[C@H](CO)NC(=O)CCCc1ccc(NC(=N)N)cc1 [Compound No. 2, 10-{N-[4-(4-GP)butanoyl)-L-Ser}-1-L-] | mouse leukemia L1210 | 136 |
| CC(C)C[C@H](NC(=O)[C@@H](N)CC(C)C)C(=O)NCCCNCCCCNC(=O)[C@H](CO)NC(=O)CCCc1ccc(NC(=N)N)cc1 [Compound No. 13, trihydrochloride] | mouse leukemia L1210 | 132 |
| N=C(N)Nc1ccc(CCCC(=O)N[C@@H](CO)C(=O)NCCCCNCCCNC(=O)[C@@H](N)Cc2ccccc2)cc1 [Compound No. 5, trihydrochloride] | mouse leukemia L1210 | 123 |

----------
Reported response vs control in vivo at 0.78 mg/kg values are given for each entry in this list.
system: mouse leukemia L1210; assay: Life prolongation effect to mouse leukemia L1210; type: in vivo, mouse (CDF1-SLC female); details: 0.78 mg/kg/day, once a day for nine consecutive days, 125 or more is effective, read-out: T/C × 100 (life prolongation percentage)
Where a name gives a salt, the structure may show the parent alone.
assayReadout: response vs control in vivo at 0.78 mg/kg (%)

| compound | measuredOn | observedValue |
| --- | --- | --- |
| N=C(N)Nc1ccc(CCCC(=O)N[C@@H](CO)C(=O)NCCCCNCCCNC(=O)[C@@H](N)Cc2ccc(O)cc2)cc1 [Compound No. 6, trihydrochloride] | mouse leukemia L1210 | 158 |
| N=C(N)Nc1ccc(CCCC(=O)N[C@@H](CO)C(=O)NCCCCNCCCNC(=O)[C@H](N)c2ccccc2)cc1 [Compound No. 4, trihydrochloride] | mouse leukemia L1210 | 149 |
| N=C(N)Nc1ccc(CCCC(=O)N[C@@H](CO)C(=O)NCCCCNCCCNC(=O)[C@@H](N)Cc2ccccc2)cc1 [Compound No. 5, trihydrochloride] | mouse leukemia L1210 | 133 |
| N=C(N)Nc1ccc(CCCC(=O)N[C@@H](CO)C(=O)NCCCCNCCCNC(=O)[C@@H](N)c2ccccc2)cc1 [Compound No. 1, trihydrochloride] | mouse leukemia L1210 | 195 |
| N=C(N)Nc1ccc(CCCC(=O)N[C@@H](CO)C(=O)NCCCCNCCCNC(=O)[C@@H](N)CC(=O)O)cc1 [Compound No. 7, trihydrochloride] | mouse leukemia L1210 | 86 |
| CC(C)C[C@H](N)C(=O)NCCCNCCCCNC(=O)[C@H](CO)NC(=O)CCCc1ccc(NC(=N)N)cc1 | mouse leukemia L1210 | 152 |
| CC(C)C[C@H](NC(=O)[C@@H](N)CC(C)C)C(=O)NCCCNCCCCNC(=O)[C@H](CO)NC(=O)CCCc1ccc(NC(=N)N)cc1 [Compound No. 13, trihydrochloride] | mouse leukemia L1210 | 149 |
| N=C(N)Nc1ccc(CCCC(=O)N[C@@H](CO)C(=O)NCCCCNCCCNC(=O)[C@@H](N)CO)cc1 [Compound No. 9, trihydrochloride] | mouse leukemia L1210 | 118 |
| C[C@H](N)C(=O)NCCCNCCCCNC(=O)[C@H](CO)NC(=O)CCCc1ccc(NC(=N)N)cc1 [Compound No. 8, trihydrochloride] | mouse leukemia L1210 | 130 |
